Test: Plasma clearance in iv dosed human
A collection of compounds and their measured clearance

[
  {
    "SMILES_REPR": "CCCCCNC(=N)N/N=C/c1c[nH]c2ccc(OC)cc12",
    "READOUT_LABEL": "clearance",
    "ENDPOINT_RESULT": "1280 mL/min"
  }
]

Pending compound:
## Input Would you kindly share the measured clearance for Cc1[nH]cnc1CN1CCc2c(c3ccccc3n2C)C1=O ?
## Output 600 mL/min

====

Assay: AUC (0 to 24 hrs) in human at 40 mg, po by LC-MS/MS analysis
Settings: in vivo
READOUT_LABEL: AUC (ng·h/mL)
Express your answer in ng·h/mL, writing the number without its unit.

## Input Look up AUC: N#Cc1ccc2[nH]cc(CCCCN3CCN(c4ccc5oc(C(N)=O)cc5c4)CC3)c2c1
## Output 1640
